The origin of these recorded values is patent US20040152708A1.

I'd appreciate it if you could supply IC50 values for the items below.
- ASSAY TARGET: CYP2C9 (Homo sapiens, UniProt P11712)
- Construct: purchased BD GenTest, Woburn, Mass
- Sequence (P11712 whole entry): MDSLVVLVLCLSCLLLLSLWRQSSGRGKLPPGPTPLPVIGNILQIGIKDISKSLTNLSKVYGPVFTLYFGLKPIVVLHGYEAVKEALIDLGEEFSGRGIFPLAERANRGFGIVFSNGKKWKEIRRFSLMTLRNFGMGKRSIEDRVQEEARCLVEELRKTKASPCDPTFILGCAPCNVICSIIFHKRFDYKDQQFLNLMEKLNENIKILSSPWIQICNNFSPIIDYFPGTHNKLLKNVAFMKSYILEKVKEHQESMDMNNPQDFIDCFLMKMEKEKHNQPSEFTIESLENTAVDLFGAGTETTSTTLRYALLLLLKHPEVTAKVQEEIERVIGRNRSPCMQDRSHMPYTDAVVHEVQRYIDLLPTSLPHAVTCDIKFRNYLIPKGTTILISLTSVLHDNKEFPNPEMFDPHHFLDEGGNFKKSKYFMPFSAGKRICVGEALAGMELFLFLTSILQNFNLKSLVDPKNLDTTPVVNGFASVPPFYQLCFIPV
- TEST DESCRIPTION: Cytochrome P450 inhibition, CYP2C9
- Format: in vitro ADME
- TEST PARAMETERS: human
Unit µM implied. Number only.

Qu. Answer with reported IC50 of C/C1=C/C[C@@H](/C(C)=C/c2ccccn2)OC(=O)C[C@H](O)C(C)(C)C(=O)[C@H](C)[C@@H](O)[C@@H](C)/C=C/C1 [KOSN 1632]
Ans. 15

Qu. Report IC50 for C/C1=C/C[C@@H](/C(C)=C/c2csc(C)n2)OC(=O)C[C@H](O)C(C)(C)C(=O)[C@H](C)[C@@H](O)[C@@H](C)/C=C/C1 (relative stereo) [9,10-dehydroepothilone D, trans-9,10-dehydroepothilone D]
Ans. 10.8

Qu. Could you please provide reported IC50 for C/C(=C\c1csc(C)n1)[C@@H]1C/C=C(/C(F)(F)F)C/C=C/[C@H](C)[C@H](O)[C@@H](C)C(=O)C(C)(C)[C@@H](O)CC(=O)O1 (relative stereo) [26-trifluoro 9,10-dehydroepothilone D, reference compound] ? Thanks!
Ans. 14.4

Qu. Quote IC50 reported for C/C1=C/C[C@@H](/C(C)=C/c2csc(CO)n2)OC(=O)C[C@H](O)C(C)(C)C(=O)[C@H](C)[C@@H](O)[C@@H](C)/C=C/C1 [21-OH 9,10-dehydroepothilone D, 21-hydroxy-9,10-dehydro-epothilone D] please.
Ans. 22

----------
- ASSAY TARGET: CYP2C19 (Homo sapiens)
- Construct: purchased BD GenTest, Woburn, Mass
- Sequence (P33261 whole entry): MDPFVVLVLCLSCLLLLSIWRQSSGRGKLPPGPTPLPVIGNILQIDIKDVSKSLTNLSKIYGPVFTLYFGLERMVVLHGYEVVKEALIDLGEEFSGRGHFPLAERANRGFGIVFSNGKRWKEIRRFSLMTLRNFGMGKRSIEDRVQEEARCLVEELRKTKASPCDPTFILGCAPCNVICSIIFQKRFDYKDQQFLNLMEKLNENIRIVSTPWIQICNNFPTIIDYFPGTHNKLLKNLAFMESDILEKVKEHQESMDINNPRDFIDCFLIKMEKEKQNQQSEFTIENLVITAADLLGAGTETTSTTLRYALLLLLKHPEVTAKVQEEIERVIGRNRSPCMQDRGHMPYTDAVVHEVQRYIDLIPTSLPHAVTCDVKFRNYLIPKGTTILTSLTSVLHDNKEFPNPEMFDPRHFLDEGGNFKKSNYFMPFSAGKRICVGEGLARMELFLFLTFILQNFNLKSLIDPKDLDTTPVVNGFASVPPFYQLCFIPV
- TEST DESCRIPTION: Cytochrome P450 inhibition, CYP2C19
- Type: in vitro ADME
- TEST PARAMETERS: human
I'd be grateful if you could share measured IC50 for these entries.
Write down the numeric answer in µM and omit the unit.

Qu. Give reported IC50 value for C/C(=C\c1csc(C)n1)[C@@H]1C/C=C(/C(F)(F)F)C/C=C/[C@H](C)[C@H](O)[C@@H](C)C(=O)C(C)(C)[C@@H](O)CC(=O)O1 (relative stereo) [26-trifluoro 9,10-dehydroepothilone D, reference compound]
Ans. 3.2

Qu. Assign IC50 to the following record: C/C1=C/C[C@@H](/C(C)=C/c2csc(C)n2)OC(=O)C[C@H](O)C(C)(C)C(=O)[C@H](C)[C@@H](O)[C@@H](C)/C=C/C1 (relative stereo) [9,10-dehydroepothilone D, trans-9,10-dehydroepothilone D]
Ans. 2

Qu. State its IC50: C/C1=C/C[C@@H](/C(C)=C/c2ccccn2)OC(=O)C[C@H](O)C(C)(C)C(=O)[C@H](C)[C@@H](O)[C@@H](C)/C=C/C1
Ans. 3.05

Qu. Given the molecule C/C1=C/C[C@@H](/C(C)=C/c2csc(CO)n2)OC(=O)C[C@H](O)C(C)(C)C(=O)[C@H](C)[C@@H](O)[C@@H](C)/C=C/C1 [21-OH 9,10-dehydroepothilone D, 21-hydroxy-9,10-dehydro-epothilone D] , write its reported IC50.
Ans. 5.6

Qu. Answer with reported IC50 of C/C1=C/C[C@@H](/C(C)=C/c2csc(CN)n2)OC(=O)C[C@H](O)C(C)(C)C(=O)[C@H](C)[C@@H](O)[C@@H](C)/C=C/C1 [21-NH2 9,10-dehydroepothilone D, 21-amino-9,10-dehydro-epothilone D]
Ans. 0.63

Qu. Respond only with IC50 recorded for C/C1=C/C[C@@H](/C(C)=C/c2nc3ccccc3s2)OC(=O)C[C@H](O)C(C)(C)C(=O)[C@H](C)[C@@H](O)[C@@H](C)/C=C/C1
Ans. 3.27

Qu. Assign IC50 to the following record: C/C(=C\c1csc(CO)n1)[C@@H]1C/C=C(/C(F)(F)F)C/C=C/[C@H](C)[C@H](O)[C@@H](C)C(=O)C(C)(C)[C@@H](O)CC(=O)O1
Ans. 20.5
